- Test system: Mycolicibacterium fortuitum
- ASSAY_SUMMARY: Antimycobacterial activity against Mycobacterium fortuitum ATCC 19542 after 7 days by resazurin method
- Assay type: functional
- CONDITION_LABEL: ATCC 19542, 168 h
Hi there, I'd appreciate the recorded MIC for every entry that follows.
Numbers only, in mg/L.

Previously resolved entries follow.
compound=COc1ccc2nc(C)cc(-n3cc(CNS(=O)(=O)c4ccc(C)cc4)nn3)c2c1 outcome_measure=MIC measure_unit=mg/L reading=100
compound=COc1ccc(C(=O)NCc2cn(-c3cc(C)nc4ccc(OC)cc34)nn2)cc1 outcome_measure=MIC measure_unit=mg/L reading=10
compound=CCc1ccc(C(=O)N2CCN(Cc3cn(-c4cc(C)nc5ccc(OC)cc45)nn3)CC2)cc1 outcome_measure=MIC measure_unit=mg/L reading=100
compound=COc1ccc2nc(C)cc(-n3cc(CN4CCN(C(=O)c5ccccc5F)CC4)nn3)c2c1 outcome_measure=MIC measure_unit=mg/L reading=100
compound=COc1ccc2nc(C)cc(-n3cc(CN4CCN(C(=O)C5CC5)CC4)nn3)c2c1 outcome_measure=MIC measure_unit=mg/L reading=100
compound=COc1ccc2nc(C)cc(-n3cc(CNC(=O)c4ccc(F)cc4)nn3)c2c1 outcome_measure=MIC measure_unit=mg/L reading=100

Hey, can you go through the list below and give me MIC for every item?
1. COc1ccc2nc(C)cc(-n3cc(CNC(=O)c4ccc(C)cc4)nn3)c2c1
2. COc1ccc2nc(C)cc(-n3cc(CN4CCN(C(=O)C5CCC5)CC4)nn3)c2c1
3. COc1ccc2nc(C)cc(-n3cc(CNC(=O)C4CC4)nn3)c2c1

1. 100
2. 100
3. 100

Hey, can you go through the list below and give me MIC for every item?
1. COc1ccc2nc(C)cc(-n3cc(CNS(=O)(=O)c4ccccc4C(F)(F)F)nn3)c2c1
2. CO[C@H]1/C=C/O[C@@]2(C)Oc3c(C)c(O)c4c(O)c(c(/C=N/N5CCN(C)CC5)c(O)c4c3C2=O)NC(=O)/C(C)=C\C=C\[C@H](C)[C@H](O)[C@@H](C)[C@@H](O)[C@@H](C)[C@H](OC(C)=O)[C@@H]1C [RIFAMPIN]

1. 10
2. 1.5

Hey, can you go through the list below and give me MIC for every item?
1. COc1ccc2nc(C)cc(-n3cc(CN4CCN(C(=O)c5ccc(F)cc5)CC4)nn3)c2c1
2. COc1ccc2nc(C)cc(-n3cc(CNS(=O)(=O)c4ccc(Cl)c(Cl)c4)nn3)c2c1

10
100

Hey, can you go through the list below and give me MIC for every item?
1. COc1ccc2nc(C)cc(-n3cc(CN4CCN(C(=O)c5ccc(C)cc5)CC4)nn3)c2c1
2. COc1ccc2nc(C)cc(-n3cc(CNC(=O)c4ccccc4F)nn3)c2c1
3. COc1ccc(C(=O)N2CCN(Cc3cn(-c4cc(C)nc5ccc(OC)cc45)nn3)CC2)cc1

[100, 100, 10]

Hey, can you go through the list below and give me MIC for every item?
1. COc1ccc2nc(C)cc(-n3cc(CNC(=O)c4ccc(C(F)(F)F)cc4)nn3)c2c1
2. COc1ccc2nc(C)cc(-n3cc(CNC(C)=O)nn3)c2c1
3. COc1ccc2nc(C)cc(-n3cc(CNC(=O)C4CCC4)nn3)c2c1
4. CCc1ccc(S(=O)(=O)NCc2cn(-c3cc(C)nc4ccc(OC)cc34)nn2)cc1
5. COc1ccc2nc(C)cc(-n3cc(CN4CCN(C(=O)c5ccccc5)CC4)nn3)c2c1
6. COc1ccc2nc(C)cc(-n3cc(CN4CCN(C(C)=O)CC4)nn3)c2c1
7. NNC(=O)c1ccncc1 [ISONIAZID]

1. 5
2. 10
3. 100
4. 100
5. 100
6. 100
7. 12.5

Hey, can you go through the list below and give me MIC for every item?
1. COc1ccc2nc(C)cc(-n3cc(CN4CCN(C(=O)c5ccc(Cl)c(Cl)c5)CC4)nn3)c2c1
2. COc1ccc2nc(C)cc(-n3cc(CNC(=O)c4ccccc4Cl)nn3)c2c1
3. COc1ccc(S(=O)(=O)NCc2cn(-c3cc(C)nc4ccc(OC)cc34)nn2)cc1

1: 100; 2: 100; 3: 10

Hey, can you go through the list below and give me MIC for every item?
1. COc1ccc2nc(C)cc(-n3cc(CNS(=O)(=O)c4ccccc4)nn3)c2c1
2. COc1ccc2nc(C)cc(-n3cc(CNS(=O)(=O)c4ccc(F)cc4)nn3)c2c1
3. CCc1ccc(C(=O)NCc2cn(-c3cc(C)nc4ccc(OC)cc34)nn2)cc1
4. COc1ccc2nc(C)cc(-n3cc(CN4CCN(C(=O)c5ccccc5Cl)CC4)nn3)c2c1

1. 100
2. 100
3. 100
4. 100
